- EXPERIMENTAL_SYSTEM: Fc-fused Cynomolgus BCMA (ACRO Biosystems, Cat. #: BCA-C5253) (cynomolgus)
- ASSAY_NAME: SPR (BIAcore T200) affinity ranking; crude sdAb captured via tag, antigen at 100 nM
READOUT_TYPE: Kd

Query (binder): anti-BCMA sdAb BCMA12 (VHH, part only, affinity tag) VHH: QVHLVESGGGSVQAGGSLRLSCKSSGATYSSNCMAWFRQTPGKEREGVATIDLASHGTYYADSVKGRFTISRDNAKNTMYLQMSGLRPEDTALYYCAATSWWPCTTFNGGYASWGQGTQVTVSS ; field requested: Kd 4.3 nM

Give the measured Kd of anti-BCMA sdAb BCMA8 (VHH, part only, affinity tag) VHH: QVQLVESGGGSVQAGGSLRLSCAASGGTRSWNYMAWFRQAPGKEREDVAIIDNVGSTRYADSVKGRFTISQDTAQNTLYLQMNSLKPEDTAMYYCAARVSWCEDPPCGFDYWGQGTQVTVSS . 13 nM

Dear colleague, I am looking for the recorded Kd of the following binder: anti-BCMA sdAb BCMA9 (VHH, part only, affinity tag) VHH: QVQLVESGGGSVQAGGSLRLSCKSSGAPYSSNCMAWFRQTPGKGREGVATIDLASHDTYYADSVKGRFTISRDNAKNTMYLQMNSLKPEDTAMYYCAATSWWPCTTFNGGYANWGQGTQVTVSS 2.4 nM

Which Kd value is on record for anti-BCMA sdAb BCMA1 (VHH, part only, affinity tag) VHH: QVQLVESGGGSVQAGGSLRLSCKASGAIYDTNCMAWFRQTPGKEREGVATIDLGNPITYYADSVKGRFTISRDNAKNTMYLQMNSLEPEDTAMYYCAATSWWPCTTFNAGYANWGQGTQVTVSS ? 0.64 nM

Each recorded value in this set is attributed to patent US20220265709A1.
